compounds and their reported pEC50
test system: HepG2; test: cells; conditions: Homo sapiens, HepG2, read-out: ED50
pEC50: −log10 of the molar value.

Compound: O=C1c2ccccc2CN1C1CCN(CCC(c2ccccc2)c2ccccc2)CC1
pEC50: 8.66

Compound: O=C(NC1CCN(CCCCC2(C(=O)NCC(F)(F)F)c3ccccc3-c3ccccc32)CC1)c1ccccc1-c1ccc(C(F)(F)F)cc1 [LOMITAPIDE]
pEC50: 9.10
